All values here come from patent US20190233498A1.

Listed here: items and their measured koff.
- Target Under Test: T1, human VIP (human)
- T1 construct: also called Vasoactive Intestinal Peptide
- T1 peptide: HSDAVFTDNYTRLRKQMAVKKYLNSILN
- Test Description: SPR, Ab immobilised
State the answer as a number, implicitly in s⁻¹.

Sample records with koff:
anti-PACAP antibody Ab1.H (antibody, human IgG1, kappa, N297A, V domains shown, humanized form of Ab1, full length) VH: EVQLVESGGGLVQPGGSLRLSCAASGFTVSSAVMNWVRQAPGKGLEWIGSIVASGTTYYASSANGRFTISRDNSKNTLYLQMNSLRAEDTAVYYCARGGGEFFIWGQGTLVTVSS VL: DIQMTQSPSTLSASVGDRVTITCQSSESVYSNYLSWYQQKPGKAPKFLIYQASNLASGVPSRFSGSGSGTEFTLTISSLQPDDFATYYCAGGYSENIVGFGGGTKVEIKR ... 0.18
anti-PACAP antibody Ab13 (antibody, human IgG1, kappa, N297A, V domains shown, full-length rabbit/human chimeric antibody) VH: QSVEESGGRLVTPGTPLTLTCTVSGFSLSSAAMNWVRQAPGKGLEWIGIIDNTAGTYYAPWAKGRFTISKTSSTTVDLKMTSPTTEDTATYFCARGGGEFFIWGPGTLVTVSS VL: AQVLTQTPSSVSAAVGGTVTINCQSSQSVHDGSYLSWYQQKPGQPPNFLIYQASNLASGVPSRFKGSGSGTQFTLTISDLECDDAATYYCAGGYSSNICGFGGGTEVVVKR ... 0.046
anti-PACAP antibody Ab5 (antibody, human IgG1, kappa, N297A, V domains shown, full-length rabbit/human chimeric antibody) VH: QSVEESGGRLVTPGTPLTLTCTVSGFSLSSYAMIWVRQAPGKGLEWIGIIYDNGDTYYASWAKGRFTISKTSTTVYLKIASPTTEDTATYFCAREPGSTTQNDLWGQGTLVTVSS VL: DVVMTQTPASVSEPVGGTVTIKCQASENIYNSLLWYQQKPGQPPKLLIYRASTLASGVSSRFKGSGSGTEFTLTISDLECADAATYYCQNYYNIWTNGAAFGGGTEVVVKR ... 0.86
anti-PACAP antibody Ab8 (antibody, human IgG1, kappa, N297A, V domains shown, full-length rabbit/human chimeric antibody) VH: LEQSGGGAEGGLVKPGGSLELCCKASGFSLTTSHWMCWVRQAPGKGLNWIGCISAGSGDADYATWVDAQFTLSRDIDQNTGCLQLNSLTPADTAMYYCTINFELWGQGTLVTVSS VL: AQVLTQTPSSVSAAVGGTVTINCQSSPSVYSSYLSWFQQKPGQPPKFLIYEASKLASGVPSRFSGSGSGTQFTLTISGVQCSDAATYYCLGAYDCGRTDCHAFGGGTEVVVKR ... 0.1

# evaluate next
Return koff (reported value) for this binder: anti-PACAP antibody Ab6 (antibody, human IgG1, kappa, N297A, V domains shown, full-length rabbit/human chimeric antibody) VH: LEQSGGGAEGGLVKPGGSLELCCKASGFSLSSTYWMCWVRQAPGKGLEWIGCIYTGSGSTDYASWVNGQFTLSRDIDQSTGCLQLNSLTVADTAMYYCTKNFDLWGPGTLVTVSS VL: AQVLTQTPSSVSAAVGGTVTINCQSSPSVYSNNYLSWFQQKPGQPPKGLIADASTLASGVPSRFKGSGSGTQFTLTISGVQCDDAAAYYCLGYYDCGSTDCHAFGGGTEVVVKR
0.00014
